Molecular target: T1, EsCas13d, nuclease-dead (Eubacterium siraeum, UniProt B0MS50, R295A;H300A;R849A;H854A)
T1 sequence: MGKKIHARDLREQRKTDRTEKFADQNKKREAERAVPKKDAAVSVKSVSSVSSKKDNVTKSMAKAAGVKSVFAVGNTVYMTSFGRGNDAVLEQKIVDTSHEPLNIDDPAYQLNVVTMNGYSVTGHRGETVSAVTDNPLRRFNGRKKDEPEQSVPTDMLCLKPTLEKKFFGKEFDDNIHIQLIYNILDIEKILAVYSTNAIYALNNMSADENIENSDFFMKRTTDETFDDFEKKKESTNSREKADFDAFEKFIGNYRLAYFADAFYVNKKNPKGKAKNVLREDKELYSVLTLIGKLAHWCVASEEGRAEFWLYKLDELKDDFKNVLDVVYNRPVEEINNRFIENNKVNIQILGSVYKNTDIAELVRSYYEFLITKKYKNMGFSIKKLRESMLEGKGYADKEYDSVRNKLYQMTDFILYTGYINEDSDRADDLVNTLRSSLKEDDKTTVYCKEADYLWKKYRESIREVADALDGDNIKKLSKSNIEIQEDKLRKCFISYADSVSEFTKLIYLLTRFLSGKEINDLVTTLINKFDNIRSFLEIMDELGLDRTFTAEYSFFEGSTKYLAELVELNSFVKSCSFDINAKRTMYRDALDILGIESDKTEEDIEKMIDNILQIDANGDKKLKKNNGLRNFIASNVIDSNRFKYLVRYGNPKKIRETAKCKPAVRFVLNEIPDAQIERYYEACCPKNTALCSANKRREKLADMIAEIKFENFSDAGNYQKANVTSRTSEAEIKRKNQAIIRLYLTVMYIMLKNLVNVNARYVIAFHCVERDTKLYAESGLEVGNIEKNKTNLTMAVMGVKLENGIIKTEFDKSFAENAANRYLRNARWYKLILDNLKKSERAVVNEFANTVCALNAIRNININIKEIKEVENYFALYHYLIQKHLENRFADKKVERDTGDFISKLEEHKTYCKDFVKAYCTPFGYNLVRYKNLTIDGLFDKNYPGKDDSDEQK
Assay: crRNA (strand 1, pre-loaded); Mg2+; 40 mM Tris-HCl pH 7.5, 150 mM NaCl, 6 mM MgCl2, 1 mM DTT, 0.1% Tween-20, 0.2 mg/ml BSA; 25 C; 10 min per concentration, then washed
Settings: tags: His6-TwinStrep-SUMO cleaved; N-terminal SNAP kept (SNAP-Surface 488); label: 3' end held by stalled T7 RNA polymerase
MEASURED_ATTRIBUTE: Kd
Phrase the answer as number then unit, nothing more needed.

Check out these entries, answers already filled in.
BINDER: target 1 C6G,U11C (mixed) RNA 1: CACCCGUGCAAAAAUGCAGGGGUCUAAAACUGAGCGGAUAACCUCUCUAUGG RNA 2: GGGAAUGGAUCCACAUCUACGAAUUCGUACCAUAGAGAGGCUAUCGGCUCACCGAGAUCGGAAGAGCACACGU
Kd: 9.8 nM
//
BINDER: target 2 MT 5'PFS UAG 3'PFS CUA (mixed) RNA 1: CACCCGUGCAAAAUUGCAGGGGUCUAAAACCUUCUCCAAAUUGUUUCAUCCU RNA 2: GGGAAUGGAUCCACAUCUACGAAUUCUAGAGGAUGAAACAAUUUGGAGAAGCUAAGAUCGGAAGAGCACACGU
Kd: 3.6 nM
//
BINDER: target 1 insC 3' of 1 (mixed) RNA 1: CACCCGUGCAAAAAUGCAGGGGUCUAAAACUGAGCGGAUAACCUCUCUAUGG RNA 2: GGGAAUGGAUCCACAUCUACGAAUUCGUACCAUAGAGAGGUUAUCCGCUCACCCGAGAUCGGAAGAGCACACGU
Kd: 9.1 nM

Here is the next item to consider.
Form field: reported Kd of target 1 U11C,A16G (mixed) RNA 1: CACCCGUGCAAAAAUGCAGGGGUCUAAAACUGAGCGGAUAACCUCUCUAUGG RNA 2: GGGAAUGGAUCCACAUCUACGAAUUCGUACCAUAGGGAGGCUAUCCGCUCACCGAGAUCGGAAGAGCACACGU 80 nM
